# TEST_TARGET: DRB1*0101 (DR1) (Homo sapiens, UniProt P01903+P01911, A100R/D57E/F55L/F60I/F76Y/I96L/L162R/M171V/P40L/Q125E/R42F/V115G/Y59C)
# TEST_PROTOCOL: HLA class II peptide binding assay, purified HLA
# EXPERIMENTAL_PARAMETERS: Table XIX, DR supermotif peptides; unit not given
Below is a list of entries, each paired with its recorded DR1 binding data value.
REPORTED_ENDPOINT: DR1 binding data

>>> recorded_number("CC(C)C[C@H](NC(=O)[C@H](CC(=O)O)NC(=O)[C@H](CCCNC(=N)N)NC(=O)[C@H](Cc1c[nH]cn1)NC(=O)[C@@H](NC(=O)[C@H](CC(C)C)NC(=O)[C@H](CCCNC(=N)N)NC(=O)[C@@H](N)C(C)C)C(C)C)C(=O)N[C@@H](C)C(=O)N[C@@H](C)C(=O)N[C@@H](CCCNC(=N)N)C(=O)N[C@@H](CC(N)=O)C(=O)N[C@H](C(=O)N[C@@H](CC(C)C)C(=O)N[C@H](C(=O)O)C(C)C)C(C)C")
0.0340
>>> recorded_number("CSCC[C@H](NC(=O)[C@H](CC(=O)O)NC(=O)[C@@H](NC(=O)CN)[C@@H](C)O)C(=O)N[C@@H](CCCCN)C(=O)N[C@@H](CC(C)C)C(=O)N[C@@H](CCCNC(=N)N)C(=O)N[C@@H](CC(C)C)C(=O)N1CCC[C@H]1C(=O)N[C@@H](C)C(=O)N[C@@H](CO)C(=O)N1CCC[C@H]1C(=O)N[C@@H](CCC(=O)O)C(=O)N[C@H](C(=O)N[C@@H](Cc1c[nH]cn1)C(=O)O)[C@@H](C)O")
0.0010
>>> recorded_number("CC[C@H](C)[C@H](NC(=O)[C@@H]1CCCN1)C(=O)N[C@@H](CCCCN)C(=O)N[C@@H](Cc1c[nH]c2ccccc12)C(=O)N[C@@H](CCSC)C(=O)N[C@@H](C)C(=O)N[C@@H](CC(C)C)C(=O)N[C@@H](CCC(=O)O)C(=O)N[C@@H](CO)C(=O)N[C@H](C(=O)N[C@@H](CC(C)C)C(=O)N[C@@H](CCCNC(=N)N)C(=O)N[C@@H](CCCNC(=N)N)C(=O)N[C@@H](CCCNC(=N)N)C(=O)N[C@@H](Cc1ccccc1)C(=O)O)[C@@H](C)CC")
0.7900

###

Below is a list of entries, each paired with its recorded No. of DR Alleles Crossbound value.
# Test system: HLA-DR molecules (DR1, DR4w4, DR7, DRB5*0101, DRB1*1501, DRB1*1101, DRB1*0802, DRB1*1302)
# TEST_PROTOCOL: DR supertype cross-reactive binding
# Parameters: species or system human
# EXPERIMENTAL_PARAMETERS: Table XXXI
REPORTED_ENDPOINT: No. of DR Alleles Crossbound

>>> recorded_number("CC[C@H](C)[C@H](NC(=O)CNC(=O)[C@H](CC(=O)O)NC(=O)[C@H](Cc1ccc(O)cc1)NC(=O)[C@@H]1CCCN1C(=O)[C@H](CCCCN)NC(=O)[C@H](C)NC(=O)CNC(=O)[C@H](Cc1ccccc1)NC(=O)[C@@H](NC(=O)[C@H](CCSC)NC(=O)[C@H](CC(C)C)NC(=O)[C@H](CCC(=O)O)NC(=O)[C@H](Cc1c[nH]c2ccccc12)NC(=O)[C@@H](N)C(C)C)[C@@H](C)O)C(=O)O")
5
>>> recorded_number("CC[C@H](C)[C@H](NC(=O)CNC(=O)[C@H](CC(C)C)NC(=O)[C@H](CC(C)C)NC(=O)[C@H](CCCNC(=N)N)NC(=O)[C@@H](N)CO)C(=O)N[C@@H](CS)C(=O)N[C@@H](CC(C)C)C(=O)N[C@H](C(=O)N[C@@H](CO)C(=O)N[C@H](C(=O)N[C@H](C(=O)N[C@@H](CCC(N)=O)C(=O)N[C@@H](CC(C)C)C(=O)N[C@H](C(=O)O)C(C)C)C(C)C)[C@@H](C)O)[C@@H](C)O")
5
>>> recorded_number("CSCC[C@H](NC(=O)[C@@H](NC(=O)[C@H](Cc1ccc(O)cc1)NC(=O)[C@H](C)NC(=O)[C@H](CCC(=O)O)NC(=O)[C@@H](N)CC(=O)O)C(C)C)C(=O)N[C@@H](C)C(=O)NCC(=O)N[C@H](C(=O)NCC(=O)N[C@@H](CO)C(=O)N1CCC[C@H]1C(=O)N[C@@H](Cc1ccc(O)cc1)C(=O)N[C@H](C(=O)N[C@@H](CO)C(=O)O)C(C)C)C(C)C")
5
>>> recorded_number("CC[C@H](C)[C@H](N)C(=O)N[C@@H](CCCCN)C(=O)N[C@@H](Cc1c[nH]c2ccccc12)C(=O)N[C@@H](CCSC)C(=O)N[C@@H](C)C(=O)N[C@@H](CC(C)C)C(=O)N[C@@H](CCC(=O)O)C(=O)N[C@@H](CO)C(=O)N[C@H](C(=O)N[C@@H](CC(C)C)C(=O)N[C@@H](CCCNC(=N)N)C(=O)N[C@@H](CCCNC(=N)N)C(=O)N[C@@H](CCCNC(=N)N)C(=O)N[C@@H](Cc1ccccc1)C(=O)N[C@H](C(=O)O)[C@@H](C)O)[C@@H](C)CC")
5

Data provenance is patent US20040121946A9.
